molecular target: hGLP-1R (Homo sapiens, UniProt P43220); assay: cell-based or functional assay
Sequence (P43220 24-463): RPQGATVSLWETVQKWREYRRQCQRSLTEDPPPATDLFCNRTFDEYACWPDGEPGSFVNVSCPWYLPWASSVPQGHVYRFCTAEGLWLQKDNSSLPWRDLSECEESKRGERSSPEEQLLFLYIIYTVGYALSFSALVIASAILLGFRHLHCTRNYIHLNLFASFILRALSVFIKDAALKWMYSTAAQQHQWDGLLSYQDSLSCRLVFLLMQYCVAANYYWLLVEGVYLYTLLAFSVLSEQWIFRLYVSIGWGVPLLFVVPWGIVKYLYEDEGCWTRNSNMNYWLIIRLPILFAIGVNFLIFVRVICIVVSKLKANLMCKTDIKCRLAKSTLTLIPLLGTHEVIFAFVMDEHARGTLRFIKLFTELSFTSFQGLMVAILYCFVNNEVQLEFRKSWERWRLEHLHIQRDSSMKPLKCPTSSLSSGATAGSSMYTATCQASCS
Give cAMP Rel EC50 (in the presence of 1% HSA) for every item shown.

Batch lookup, cAMP Rel EC50 (in the presence of 1% HSA) per entry.
1. YXQGTFTSDFSKXLDKKAQXAFIEWLLAGGPSSGEPPPSGE (synthetic construct; SITE 2: note = 2-Aminoisobutyric Acid; SITE 13: note = alpha-methyl-leucine; SITE 17: note = Lysine is chemically modified through conjugation of the epsilon-amino group of the Lysine side chain with (2-[2-(2-Amino-ethoxy)-ethoxy]-acetyl)-(gamma-Glu)-CO-(CH2) 18-CO2H; SITE 20: n) [Example 21]
2. YXQGTFTSDXSKXLDKKAQXAFIEYLIEAGESSGAPPPSGS (Aib, 4Pal, αMeL, D-Ala; K acylated AEEA-γGlu-C18 diacid; amide; synthetic construct; SITE 2: note = 2-Aminoisobutyric Acid; SITE 10: note = 3-(4-Pyridyl)-L-alanine; SITE 13: note = alpha-methyl-leucine; SITE 17: note = Lysine is chemically modified through conjugation of the epsilon-amino group of the Lysine side chain with (2-[2-(2-Amino-ethoxy)-ethoxy]-acetyl)) [Example 283]
3. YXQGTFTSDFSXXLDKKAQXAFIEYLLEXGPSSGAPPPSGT (C-terminal amide; lysine acylated with AEEA-(γ-Glu)2-C18 diacid; synthetic construct; SITE 2: note = 2-Aminoisobutyric Acid; SITE 12: note = L-ornithine; SITE 13: note = alpha-methyl-leucine; SITE 17: note = Lysine is chemically modified through conjugation of the epsilon-amino group of the Lysine side chain with (2-[2-(2-Amino-ethoxy)-ethoxy]-acetyl)-(gamma-Glu)) [Example 278]
4. YXQGTFTSDFSKXLDKKAQXAFIEWLIEGGPSSGAPPPSEG (synthetic construct; SITE 2: note = 2-Aminoisobutyric Acid; SITE 13: note = alpha-methyl-leucine; SITE 17: note = Lysine is chemically modified through conjugation of the epsilon-amino group of the Lysine side chain with (2-[2-(2-Amino-ethoxy)-ethoxy]-acetyl)-(gamma-Glu)-CO-(CH2) 18-CO2H; SITE 20: n) [Example 40]
5. YXQGTXTSDXSIXLDXKAQXEFIEXLQEGGPSSGAPPPSGS (non-natural residues; acylated Lys; C-terminal amide; synthetic construct; SITE 2: note = 2-Aminoisobutyric Acid; SITE 6: note = alpha-methyl-2-fluoro-L-phenylalanine; SITE 10: note = 3-(4-Pyridyl)-L-alanine; SITE 13: note = alpha-methyl-leucine; SITE 16: note = L-ornithine; SITE 17: note = Lysine is chemically modified through conjugation of the epsil) [Example 643]
6. YXQGTXTSDXSIXLDKKAQXAFIEYLSEGGPSSGEPPPSGSEE (Lys acylated (γ-Glu)2-C18 diacid; non-natural residues; C-terminal amide; synthetic construct; SITE 2: note = 2-Aminoisobutyric Acid; SITE 6: note = alpha-methyl-2-fluoro-L-phenylalanine; SITE 10: note = 3-(4-Pyridyl)-L-alanine; SITE 13: note = alpha-methyl-leucine; SITE 17: note = Lysine is chemically modified through conjugation of the epsilon-amino group of the Lysine) [Example 632]
7. YXQGTFTSDFSKXLDKKAQXAFIQYLLAGGPSSGEPPPSEG (synthetic construct; SITE 2: note = 2-Aminoisobutyric Acid; SITE 13: note = alpha-methyl-leucine; SITE 17: note = Lysine is chemically modified through conjugation of the epsilon-amino group of the Lysine side chain with (2-[2-(2-Amino-ethoxy)-ethoxy]-acetyl)-(gamma-Glu)-CO-(CH2) 18-CO2H; SITE 20: n) [Example 27]
8. YXQGTXTSDXXIXLDXKAQXEFIEXLVEGGPSSGEPPPSGSE (non-natural residues; lipidated Lys; C-terminal amide; synthetic construct; SITE 2: note = 2-Aminoisobutyric Acid; SITE 6: note = alpha-methyl-2-fluoro-L-phenylalanine; SITE 10: note = 3-(4-Pyridyl)-L-alanine; SITE 11: note = alpha-methyl-L-serine; SITE 13: note = alpha-methyl-leucine; SITE 16: note = L-ornithine; SITE 17: note = Lysine is chemically mo) [Example 1163]

A)
["324 nM", "233 nM", "241 nM", "138 nM", "60.1 nM", "88.2 nM", "464 nM", "35.4 nM"]

Batch lookup, cAMP Rel EC50 (in the presence of 1% HSA) per entry.
1. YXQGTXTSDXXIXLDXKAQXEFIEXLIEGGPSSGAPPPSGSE (non-natural residues; AEEA-(γGlu)2-C18 diacid on Lys; amide; synthetic construct; SITE 2: note = 2-Aminoisobutyric Acid; SITE 6: note = alpha-methyl-2-fluoro-L-phenylalanine; SITE 10: note = 3-(4-Pyridyl)-L-alanine; SITE 11: note = alpha-methyl-L-serine; SITE 13: note = alpha-methyl-leucine; SITE 16: note = L-ornithine; SITE 17: note = Lysine is chemically mo) [Example 1178]
2. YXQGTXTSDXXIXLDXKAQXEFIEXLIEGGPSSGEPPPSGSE (non-natural residues, acylated Lys ((γGlu)2-C18 diacid), C-terminal amide; synthetic construct; SITE 2: note = 2-Aminoisobutyric Acid; SITE 6: note = alpha-methyl-L-phenylalanine; SITE 10: note = 3-(4-Pyridyl)-L-alanine; SITE 11: note = alpha-methyl-L-serine; SITE 13: note = alpha-methyl-leucine; SITE 16: note = L-ornithine; SITE 17: note = Lysine is chemically modified th) [Example 1173]
3. YXQGTXTSDXSIXLDKKAQXAFIEYLEEGGPSSGEPPPSGEGE (non-natural residues; lipidated Lys; C-terminal amide; synthetic construct; SITE 2: note = 2-Aminoisobutyric Acid; SITE 6: note = alpha-methyl-2-fluoro-L-phenylalanine; SITE 10: note = 3-(4-Pyridyl)-L-alanine; SITE 13: note = alpha-methyl-leucine; SITE 17: note = Lysine is chemically modified through conjugation of the epsilon-amino group of the Lysine) [Example 625]
4. YXQGTXTSDXSIXLDKKAQXAFIEYLEEGGPSSGAPPPEGTGE (non-natural residues; acylated Lys; C-terminal amide; synthetic construct; SITE 2: note = 2-Aminoisobutyric Acid; SITE 6: note = alpha-methyl-2-fluoro-L-phenylalanine; SITE 10: note = 3-(4-Pyridyl)-L-alanine; SITE 13: note = alpha-methyl-leucine; SITE 17: note = Lysine is chemically modified through conjugation of the epsilon-amino group of the Lysine) [Example 626]

A)
1: 39 nM; 2: 59.1 nM; 3: 72.1 nM; 4: 60.8 nM

The reported numbers originate from patent US20240270821A1.
